Target: Acetylcholinesterase (Homo sapiens)
Sequence (P22303 whole entry): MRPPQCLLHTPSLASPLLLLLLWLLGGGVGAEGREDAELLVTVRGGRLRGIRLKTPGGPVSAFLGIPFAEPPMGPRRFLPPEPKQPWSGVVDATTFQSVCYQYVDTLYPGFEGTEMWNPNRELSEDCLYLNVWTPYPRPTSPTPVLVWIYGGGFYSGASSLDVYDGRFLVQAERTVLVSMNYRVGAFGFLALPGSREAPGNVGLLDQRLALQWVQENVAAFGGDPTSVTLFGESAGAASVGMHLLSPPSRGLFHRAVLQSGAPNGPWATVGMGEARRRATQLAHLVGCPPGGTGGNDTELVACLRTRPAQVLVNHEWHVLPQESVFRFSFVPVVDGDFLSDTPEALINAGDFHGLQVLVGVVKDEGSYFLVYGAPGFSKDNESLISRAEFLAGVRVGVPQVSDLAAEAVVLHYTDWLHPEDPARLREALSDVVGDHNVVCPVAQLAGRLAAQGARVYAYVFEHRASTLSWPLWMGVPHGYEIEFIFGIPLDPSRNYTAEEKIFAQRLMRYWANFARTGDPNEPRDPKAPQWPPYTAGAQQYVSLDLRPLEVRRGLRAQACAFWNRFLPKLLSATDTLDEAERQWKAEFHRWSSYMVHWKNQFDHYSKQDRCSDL
Test: Inhibition of AChE (unknown origin)
ASSAY_READOUT: IC50 (µM)
Give bare numbers, in µM.

INPUT: Respond only with IC50 recorded for `CON(C)C(=O)Oc1ccccc1C(=O)NCCc1c[nH]c2ccccc12`
OUTPUT: 3.24

* * *

Target: Acetylcholinesterase (Electrophorus electricus) (UniProt O42275)
Sequence (O42275 24-633 limits assumed): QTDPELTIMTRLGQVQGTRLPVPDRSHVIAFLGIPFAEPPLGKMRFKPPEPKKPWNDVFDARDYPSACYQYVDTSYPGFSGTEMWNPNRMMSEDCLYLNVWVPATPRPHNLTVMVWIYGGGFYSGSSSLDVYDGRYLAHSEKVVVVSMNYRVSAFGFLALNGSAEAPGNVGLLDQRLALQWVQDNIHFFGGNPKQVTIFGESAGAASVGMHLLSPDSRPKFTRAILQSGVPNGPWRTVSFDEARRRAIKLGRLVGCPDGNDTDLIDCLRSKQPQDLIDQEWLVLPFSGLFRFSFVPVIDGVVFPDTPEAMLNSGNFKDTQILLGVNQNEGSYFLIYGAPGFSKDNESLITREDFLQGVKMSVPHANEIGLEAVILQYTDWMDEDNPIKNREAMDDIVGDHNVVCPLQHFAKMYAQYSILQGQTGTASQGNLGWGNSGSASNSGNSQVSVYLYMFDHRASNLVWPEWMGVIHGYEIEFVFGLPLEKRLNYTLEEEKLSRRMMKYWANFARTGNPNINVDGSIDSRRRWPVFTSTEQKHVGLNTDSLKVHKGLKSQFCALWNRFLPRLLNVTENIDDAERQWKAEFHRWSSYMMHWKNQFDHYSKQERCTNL
Experiment: Inhibition of electric eel AChE using acetylthiocholine iodide as substrate at 20 uM incubated for 20 mins by Ellman's method relative to control
Classify by measured inhibition: YES if it is equal to or exceeds 30%, NO if it is smaller.

1) COc1cc(-c2nc3ccc(NC(=O)c4ccc(Cl)cc4)cc3c(=O)[nH]2)cc(OC)c1OC | NO
2) COc1cc(-c2nc3ccc(NC(=O)c4ccc(Br)cc4)cc3c(=O)[nH]2)cc(OC)c1OC | NO
3) COc1cc(OC)c2c(=O)[nH]c(-c3c[nH]c4ccccc34)nc2c1 | YES
4) COc1cc(-c2nc3ccccc3c(=O)[nH]2)cc(OC)c1OC | YES
5) CCN(CC)c1ccc(-c2nc3cc(OC)cc(OC)c3c(=O)[nH]2)cc1 | NO
6) COc1cc(OC)c2c(=O)[nH]c(-c3ccc(N4CCN(C(=O)OC(C)(C)C)CC4)cc3)nc2c1 | YES
7) CN1CCN(c2ccc(-c3nc4ccc(N)cc4c(=O)[nH]3)cc2)CC1 | YES
8) COc1cc(OC)c2c(=O)[nH]c(C(=O)c3cc(OC)c(OC)c(OC)c3)nc2c1 | NO

Shift focus to the following entry.
INPUT: Entry `CN1CCN(c2ccc(-c3nc4ccc([N+](=O)[O-])cc4c(=O)[nH]3)cc2)CC1` : is its inhibition no less than 30%?
OUTPUT: YES

* * *

Biological target: Acetylcholinesterase (Electrophorus electricus)
Assay: Inhibition of electric eel AChE using acetylthiocholine iodide as substrate at 20 uM incubated for 20 mins by Ellman's method relative to control
ASSAY_READOUT: inhibition
Give the figure together with its unit, number first.

Kindly give each listed record's inhibition.
1. COc1cc(OC)c2c(=O)[nH]c(-c3cn(Cc4ccccc4)cn3)nc2c1
2. COc1cc(OC)c2c(=O)[nH]c(-c3cc(OC)c(OC)c(OC)c3)nc2c1
3. COc1cc(-c2nc3ccc(NCC4CCN(Cc5ccccc5)CC4)cc3c(=O)[nH]2)cc(OC)c1OC
4. COc1cc(-c2nc3ccc(NCc4ccc(N5CCN(C)CC5)cc4)cc3c(=O)[nH]2)cc(OC)c1OC

OUTPUT:
1. 87.9%
2. 38.7%
3. 69%
4. 23.6%

* * *

Target: Cholinesterase (Equus caballus)
Assay: Inhibition of equine serum BChE at 20 uM by Ellman's method relative to control
Assay type: cell-free
Calls of active or inactive are those of the source. The rule behind the calls is not given here.
ASSAY_READOUT: inhibition

Here is how some compounds turned out for inhibition.
1. COc1cc(-c2nc3ccccc3c(=O)[nH]2)cc(OC)c1OC | 32.9%
2. COc1cc(OC)c2c(=O)[nH]c(-c3cccs3)nc2c1 | 35.3%
3. COc1cc(OC)c2c(=O)[nH]c(-c3nc[nH]c3C)nc2c1 | 25.9%
4. COc1cc(OC)c2c(=O)[nH]c(C(=O)c3cc(OC)c(OC)c(OC)c3)nc2c1 | inactive
5. COc1cc(OC)c2c(=O)[nH]c(-c3ccc(N4CCN(C)CC4)cc3)nc2c1 | 38.7%
6. COc1cc(OC)c2c(=O)[nH]c(-c3c[nH]cn3)nc2c1 | 13.1%

Kindly give each listed record's inhibition.
1. COc1cc(-c2nc3ccc(NCc4ccc(N5CCN(C)CC5)cc4)cc3c(=O)[nH]2)cc(OC)c1OC
2. O=c1[nH]c(C2CCN(Cc3ccccc3)CC2)nc2ccc(Br)cc12
3. COc1cc(-c2nc3ccc(Br)cc3c(=O)[nH]2)cc(OC)c1OC
4. O=c1[nH]c(C2CCN(Cc3ccccc3)CC2)nc2ccccc12
5. COc1cc(OC)c2c(=O)[nH]c(-c3cc(OC)c(OC)c(OC)c3)nc2c1
6. CN1CCN(c2ccc(-c3nc4ccc(N)cc4c(=O)[nH]3)cc2)CC1

OUTPUT:
["inactive", "14.6%", "12.4%", "48.6%", "10.9%", "3.32%"]

# credit: ChEMBL document CHEMBL5321215
